Target: Rhodesain (Trypanosoma brucei rhodesiense)
Assay: Inhibition of Trypanosoma brucei rhodesiense rhodesain after 12 hrs by fluorescence spectroscopy-based on-bead assay
Design: concentration or dose not given beside the values
Conditions: concentration not given here
Peptide text beside a SMILES is read from it.
Hi there, I'd appreciate the recorded inhibition for every entry that follows.
Give bare numbers, in %.

Solved entries:
| Compound | Unit String | inhibition |
| --- | --- | --- |
| CC(C)[C@H](NC(=O)[C@@H](NC(=O)[C@@H](NC(=O)[C@H](CCC(N)=O)NC(=O)/C=C/C(=O)N[C@@H](C)C(=O)NCC(=O)N[C@@H](Cc1ccccc1)C(=O)O)c1ccccc1)C(C)C)C(N)=O (HELM PEPTIDE1{[C[C@H](NC(=O)/C=C/C(=O)[*:2])C(=O)NCC(=O)N[C@@H](Cc1ccccc1)C(=O)O].Q.[Phg].V.V.[am]}$$$$V2.0) | % | 34 |
| CC(C)[C@H](NC(=O)[C@@H](NC(=O)[C@@H](NC(=O)[C@H](CCC(N)=O)NC(=O)/C=C/C(=O)N[C@@H](C)C(=O)NCC(=O)N[C@@H](Cc1ccccc1)C(=O)O)C1CCCCC1)C(C)C)C(N)=O (HELM PEPTIDE1{[C[C@H](NC(=O)/C=C/C(=O)[*:2])C(=O)NCC(=O)N[C@@H](Cc1ccccc1)C(=O)O].Q.[O=C([C@@H](N[*:1])C1CCCCC1)[*:2]].V.V.[am]}$$$$V2.0) | % | 43 |

Consider the record given below.
Query block: For the compound shown here, CC(C)[C@H](NC(=O)[C@H](C)NC(=O)[C@@H](NC(=O)[C@H](C)NC(=O)/C=C/C(=O)NCC(=O)NCC(=O)N[C@@H](Cc1ccccc1)C(=O)O)C1CCCCC1)C(N)=O (HELM PEPTIDE1{[O=C(/C=C/C(=O)[*:2])NCC(=O)NCC(=O)N[C@@H](Cc1ccccc1)C(=O)O].A.[O=C([C@@H](N[*:1])C1CCCCC1)[*:2]].A.V.[am]}$$$$V2.0) , give the reported inhibition.
Result block: 26

* * *

Molecular target: Rhodesain (Trypanosoma brucei rhodesiense) (UniProt Q95PM0)
Sequence (Q95PM0 1-450): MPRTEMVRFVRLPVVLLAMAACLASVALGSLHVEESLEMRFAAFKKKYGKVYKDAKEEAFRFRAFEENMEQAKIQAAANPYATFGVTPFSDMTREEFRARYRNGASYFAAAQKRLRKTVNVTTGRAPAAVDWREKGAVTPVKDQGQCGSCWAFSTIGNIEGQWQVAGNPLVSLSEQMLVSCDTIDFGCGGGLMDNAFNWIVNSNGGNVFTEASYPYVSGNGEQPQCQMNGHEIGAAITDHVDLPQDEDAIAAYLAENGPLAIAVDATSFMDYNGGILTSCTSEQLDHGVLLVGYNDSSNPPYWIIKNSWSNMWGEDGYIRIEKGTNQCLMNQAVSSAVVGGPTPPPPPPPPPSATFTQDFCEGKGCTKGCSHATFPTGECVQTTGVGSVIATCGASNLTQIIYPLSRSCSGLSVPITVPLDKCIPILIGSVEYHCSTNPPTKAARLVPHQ
Experiment: Inhibition of Trypanosoma brucei rhodesiense rhodesain after 12 hrs by fluorescence spectroscopy-based on-bead assay
Parameters: concentration or dose not given beside the values
Settings: concentration not given here
Peptide text beside a SMILES is read from it.
Hi there, I'd appreciate the recorded inhibition for every entry that follows.
Numbers only, in %.

| Compound | Assayed System | inhibition / % |
| --- | --- | --- |
| CC(C)C[C@H](NC(=O)[C@H](CCC(N)=O)NC(=O)/C=C/C(=O)NCC(=O)NCC(=O)N[C@@H](Cc1ccccc1)C(=O)O)C(=O)N[C@@H](C)C(=O)N[C@H](C(N)=O)C(C)C (HELM PEPTIDE1{[O=C(/C=C/C(=O)[*:2])NCC(=O)NCC(=O)N[C@@H](Cc1ccccc1)C(=O)O].Q.L.A.V.[am]}$$$$V2.0) | Rhodesain (Trypanosoma brucei rhodesiense) (UniProt Q95PM0) | 38 |
| CC[C@H](C)[C@H](NC(=O)[C@H](CCC(N)=O)NC(=O)/C=C/C(=O)NCC(=O)NCC(=O)N[C@@H](Cc1ccccc1)C(=O)O)C(=O)N[C@@H](CC(C)C)C(=O)N[C@H](C(N)=O)C(C)C (HELM PEPTIDE1{[O=C(/C=C/C(=O)[*:2])NCC(=O)NCC(=O)N[C@@H](Cc1ccccc1)C(=O)O].Q.I.L.V.[am]}$$$$V2.0) | Rhodesain (Trypanosoma brucei rhodesiense) (UniProt Q95PM0) | 52 |
| CC[C@H](C)[C@H](NC(=O)[C@H](CC(N)=O)NC(=O)/C=C/C(=O)N[C@@H](C)C(=O)NCC(=O)N[C@@H](Cc1ccccc1)C(=O)O)C(=O)N[C@H](C(=O)N[C@H](C(N)=O)C(C)C)C(C)C (HELM PEPTIDE1{[C[C@H](NC(=O)/C=C/C(=O)[*:2])C(=O)NCC(=O)N[C@@H](Cc1ccccc1)C(=O)O].N.I.V.V.[am]}$$$$V2.0) | Rhodesain (Trypanosoma brucei rhodesiense) (UniProt Q95PM0) | 21 |
| CC(C)[C@H](NC(=O)[C@@H](NC(=O)[C@@H](NC(=O)[C@H](C)NC(=O)/C=C/C(=O)N[C@@H](C)C(=O)NCC(=O)N[C@@H](Cc1ccccc1)C(=O)O)c1ccccc1)C(C)C)C(N)=O (HELM PEPTIDE1{[C[C@H](NC(=O)/C=C/C(=O)[*:2])C(=O)NCC(=O)N[C@@H](Cc1ccccc1)C(=O)O].A.[Phg].V.V.[am]}$$$$V2.0) | Rhodesain (Trypanosoma brucei rhodesiense) (UniProt Q95PM0) | 50 |
| CC(C)[C@H](NC(=O)[C@@H](NC(=O)[C@@H](NC(=O)[C@H](CCC(N)=O)NC(=O)/C=C/C(=O)NCC(=O)NCC(=O)N[C@@H](Cc1ccccc1)C(=O)O)c1ccccc1)C(C)C)C(N)=O (HELM PEPTIDE1{[O=C(/C=C/C(=O)[*:2])NCC(=O)NCC(=O)N[C@@H](Cc1ccccc1)C(=O)O].Q.[Phg].V.V.[am]}$$$$V2.0) | Rhodesain (Trypanosoma brucei rhodesiense) (UniProt Q95PM0) | 45 |

Consider the record given below.
Query block: What inhibition appears in the records for this compound with Rhodesain (Trypanosoma brucei rhodesiense) (UniProt Q95PM0)? CC(C)C[C@H](NC(=O)[C@@H](NC(=O)[C@H](C)NC(=O)/C=C/C(=O)N[C@@H](C)C(=O)NCC(=O)N[C@@H](Cc1ccccc1)C(=O)O)C1CCCCC1)C(=O)N[C@H](C(N)=O)C(C)C (HELM PEPTIDE1{[C[C@H](NC(=O)/C=C/C(=O)[*:2])C(=O)NCC(=O)N[C@@H](Cc1ccccc1)C(=O)O].A.[O=C([C@@H](N[*:1])C1CCCCC1)[*:2]].L.V.[am]}$$$$V2.0)
Result block: 59
